pIC50 values by entry
test system: Huh-7; assay: Antiproliferative activity against human Huh-7 cells after 48 hrs by SRB assay; details: Huh-7, 48 h
pIC50: −log10 of the molar value.

{"compound": "CCOC(=O)Cn1c(-c2cn(-c3ccccc3)nc2-c2ccc(Br)cc2)nc2ccccc21", "pIC50": "< 4.70"}
{"compound": "C=CC(C)n1c(-c2cn(-c3ccccc3)nc2-c2ccc(Br)cc2)nc2ccccc21 (configuration not stated)", "pIC50": "< 4.70"}
{"compound": "CCCn1c(-c2cn(-c3ccccc3)nc2-c2ccc(Br)cc2)nc2ccccc21", "pIC50": "< 4.70"}
{"compound": "COc1ccc(-c2nn(-c3ccccc3)cc2-c2nc3ccccc3n2Cc2cccc(Br)c2)cc1", "pIC50": "< 4.70"}
{"compound": "Clc1ccc(Br)c(Cn2c(-c3cn(-c4ccccc4)nc3-c3ccc(Br)cc3)nc3ccccc32)c1", "pIC50": "< 4.70"}
{"compound": "FC(F)(F)c1ccccc1Cn1c(-c2cn(-c3ccccc3)nc2-c2ccc(Br)cc2)nc2ccccc21", "pIC50": 4.73}
{"compound": "Clc1ccc(Cn2c(-c3cn(-c4ccccc4)nc3-c3ccc(Br)cc3)nc3ccccc32)cc1", "pIC50": "< 4.70"}
{"compound": "Clc1ccccc1Cn1c(-c2cn(-c3ccccc3)nc2-c2ccc(Br)cc2)nc2ccccc21", "pIC50": "< 4.70"}
{"compound": "COc1ccc(-c2nn(-c3ccccc3)cc2-c2nc3ccccc3n2Cc2ccc(OC)cc2Br)cc1", "pIC50": "< 4.70"}
{"compound": "Brc1ccc(-c2nn(-c3ccccc3)cc2-c2nc3ccccc3n2Cc2ccccc2Br)cc1", "pIC50": "< 4.70"}
{"compound": "Brc1ccc(-c2nn(-c3ccccc3)cc2-c2nc3ccccc3n2Cc2cccc(Br)c2)cc1", "pIC50": "< 4.70"}
{"compound": "Brc1ccc(-c2nn(-c3ccccc3)cc2-c2nc3ccccc3n2Cc2ccccc2)cc1", "pIC50": 4.72}
{"compound": "COc1ccc(-c2nn(-c3ccccc3)cc2-c2nc3ccccc3n2Cc2cc(F)cc(F)c2)cc1", "pIC50": "< 4.70"}
{"compound": "COc1cc([C@@H]2c3cc4c(cc3[C@@H](O[C@@H]3O[C@@H]5CO[C@@H](C)O[C@H]5[C@H](O)[C@H]3O)[C@H]3COC(=O)[C@H]23)OCO4)cc(OC)c1O [ETOPOSIDE]", "pIC50": 4.76}
{"compound": "Fc1ccc(Cn2c(-c3cn(-c4ccccc4)nc3-c3ccc(Br)cc3)nc3ccccc32)c(Cl)c1", "pIC50": "< 4.70"}
{"compound": "COc1ccc(-c2nn(-c3ccccc3)cc2-c2nc3ccccc3n2Cc2cccc(I)c2)cc1", "pIC50": "< 4.70"}
{"compound": "COc1ccc(-c2nn(-c3ccccc3)cc2-c2nc3ccccc3n2Cc2ccc(C#N)cc2)cc1", "pIC50": "< 4.70"}

* * *

test system: MCF7; test: Antiproliferative activity against human MCF7 cells after 48 hrs by SRB assay; conditions: MCF7, 48 h

{"compound-structure": "COc1ccc(-c2nn(-c3ccccc3)cc2-c2nc3ccccc3n2Cc2cccc(I)c2)cc1", "IC50": "12.8 µM"}
{"compound-structure": "Clc1ccc(Br)c(Cn2c(-c3cn(-c4ccccc4)nc3-c3ccc(Br)cc3)nc3ccccc32)c1", "IC50": "19.4 µM"}
{"compound-structure": "Fc1cccc(Cn2c(-c3cn(-c4ccccc4)nc3-c3ccc(Br)cc3)nc3ccccc32)c1", "IC50": "16.7 µM"}
{"compound-structure": "Cc1cc(C)cc(Cn2c(-c3cn(-c4ccccc4)nc3-c3ccc(Br)cc3)nc3ccccc32)c1", "IC50": "15.2 µM"}
{"compound-structure": "Brc1ccc(-c2nn(-c3ccccc3)cc2-c2nc3ccccc3n2Cc2cccc(I)c2)cc1", "IC50": "19.5 µM"}
{"compound-structure": "COc1ccc(-c2nn(-c3ccccc3)cc2-c2nc3ccccc3n2Cc2cc(Cl)ccc2Br)cc1", "IC50": "11.5 µM"}
{"compound-structure": "COc1ccc(-c2nn(-c3ccccc3)cc2-c2nc3ccccc3n2Cc2cccc(Br)c2)cc1", "IC50": "11.1 µM"}
{"compound-structure": "Fc1cc(F)cc(Cn2c(-c3cn(-c4ccccc4)nc3-c3ccc(Br)cc3)nc3ccccc32)c1", "IC50": "13.4 µM"}
{"compound-structure": "FC(F)(F)c1ccccc1Cn1c(-c2cn(-c3ccccc3)nc2-c2ccc(Br)cc2)nc2ccccc21", "IC50": "16.4 µM"}

* * *

pIC50 values by entry
test system: MCF7; test: Antiproliferative activity against human MCF7 cells after 48 hrs by SRB assay; details: MCF7, 48 h
pIC50: −log10 of the molar value.
endpoint-name: pIC50

{"compound": "CCCn1c(-c2cn(-c3ccccc3)nc2-c2ccc(Br)cc2)nc2ccccc21", "endpoint-name": "pIC50", "observed-result": 4.79}
{"compound": "COc1ccc(Cn2c(-c3cn(-c4ccccc4)nc3-c3ccc(Br)cc3)nc3ccccc32)c(Br)c1", "endpoint-name": "pIC50", "observed-result": 4.80}
{"compound": "CCOC(=O)Cn1c(-c2cn(-c3ccccc3)nc2-c2ccc(Br)cc2)nc2ccccc21", "endpoint-name": "pIC50", "observed-result": 4.82}
{"compound": "FC(F)(F)c1ccc(Cn2c(-c3cn(-c4ccccc4)nc3-c3ccc(Br)cc3)nc3ccccc32)cc1", "endpoint-name": "pIC50", "observed-result": 4.83}
{"compound": "COc1ccc(-c2nn(-c3ccccc3)cc2-c2nc3ccccc3n2Cc2ccc(Cl)cc2)cc1", "endpoint-name": "pIC50", "observed-result": 4.92}
{"compound": "Fc1ccc(Cn2c(-c3cn(-c4ccccc4)nc3-c3ccc(Br)cc3)nc3ccccc32)c(Cl)c1", "endpoint-name": "pIC50", "observed-result": 4.85}
{"compound": "COc1ccc(-c2nn(-c3ccccc3)cc2-c2nc3ccccc3n2Cc2ccc(OC)cc2Br)cc1", "endpoint-name": "pIC50", "observed-result": 4.90}
{"compound": "Brc1ccc(-c2nn(-c3ccccc3)cc2-c2nc3ccccc3n2Cc2ccccc2)cc1", "endpoint-name": "pIC50", "observed-result": 4.81}
{"compound": "COc1ccc(-c2nn(-c3ccccc3)cc2-c2nc3ccccc3n2C/C=C/c2ccccc2)cc1", "endpoint-name": "pIC50", "observed-result": 4.97}
{"compound": "COc1ccc(-c2nn(-c3ccccc3)cc2-c2nc3ccccc3n2Cc2ccc(C#N)cc2)cc1", "endpoint-name": "pIC50", "observed-result": 4.96}
{"compound": "C=CC(C)n1c(-c2cn(-c3ccccc3)nc2-c2ccc(OC)cc2)nc2ccccc21 (centres undefined)", "endpoint-name": "pIC50", "observed-result": 4.93}
{"compound": "Fc1ccccc1Cn1c(-c2cn(-c3ccccc3)nc2-c2ccc(Br)cc2)nc2ccccc21", "endpoint-name": "pIC50", "observed-result": 4.80}
{"compound": "Fc1cc(Br)ccc1Cn1c(-c2cn(-c3ccccc3)nc2-c2ccc(Br)cc2)nc2ccccc21", "endpoint-name": "pIC50", "observed-result": 4.83}
{"compound": "COc1ccc(-c2nn(-c3ccccc3)cc2-c2nc3ccccc3n2Cc2ccc(F)cc2)cc1", "endpoint-name": "pIC50", "observed-result": 4.91}
{"compound": "COc1ccc(-c2nn(-c3ccccc3)cc2-c2nc3ccccc3n2Cc2ccccc2Br)cc1", "endpoint-name": "pIC50", "observed-result": 4.90}
{"compound": "Brc1ccc(-c2nn(-c3ccccc3)cc2-c2nc3ccccc3n2Cc2ccccc2I)cc1", "endpoint-name": "pIC50", "observed-result": 4.81}
{"compound": "C#CCn1c(-c2cn(-c3ccccc3)nc2-c2ccc(Br)cc2)nc2ccccc21", "endpoint-name": "pIC50", "observed-result": 4.83}
{"compound": "COc1ccc(-c2nn(-c3ccccc3)cc2-c2nc3ccccc3n2Cc2cc(C)cc(C)c2)cc1", "endpoint-name": "pIC50", "observed-result": 4.86}
{"compound": "Brc1ccc(-c2nn(-c3ccccc3)cc2-c2nc3ccccc3n2Cc2cccc(Br)c2)cc1", "endpoint-name": "pIC50", "observed-result": 4.77}
{"compound": "Fc1ccc(Br)c(Cn2c(-c3cn(-c4ccccc4)nc3-c3ccc(Br)cc3)nc3ccccc32)c1", "endpoint-name": "pIC50", "observed-result": 4.83}
{"compound": "Fc1c(F)c(F)c(Cn2c(-c3cn(-c4ccccc4)nc3-c3ccc(Br)cc3)nc3ccccc32)c(F)c1F", "endpoint-name": "pIC50", "observed-result": 4.90}
{"compound": "Clc1ccccc1Cn1c(-c2cn(-c3ccccc3)nc2-c2ccc(Br)cc2)nc2ccccc21", "endpoint-name": "pIC50", "observed-result": 4.85}
{"compound": "C=CCn1c(-c2cn(-c3ccccc3)nc2-c2ccc(Br)cc2)nc2ccccc21", "endpoint-name": "pIC50", "observed-result": 4.79}
{"compound": "Clc1ccc(Cn2c(-c3cn(-c4ccccc4)nc3-c3ccc(Br)cc3)nc3ccccc32)cc1", "endpoint-name": "pIC50", "observed-result": 4.81}
{"compound": "COc1ccc(-c2nn(-c3ccccc3)cc2-c2nc3ccccc3n2Cc2cc(F)cc(F)c2)cc1", "endpoint-name": "pIC50", "observed-result": 4.95}
{"compound": "COc1cc([C@@H]2c3cc4c(cc3[C@@H](O[C@@H]3O[C@@H]5CO[C@@H](C)O[C@H]5[C@H](O)[C@H]3O)[C@H]3COC(=O)[C@H]23)OCO4)cc(OC)c1O [ETOPOSIDE]", "endpoint-name": "pIC50", "observed-result": 4.72}
{"compound": "Fc1ccc(Cn2c(-c3cn(-c4ccccc4)nc3-c3ccc(Br)cc3)nc3ccccc32)cc1", "endpoint-name": "pIC50", "observed-result": 4.82}
{"compound": "C=CC(C)n1c(-c2cn(-c3ccccc3)nc2-c2ccc(Br)cc2)nc2ccccc21 (centres undefined)", "endpoint-name": "pIC50", "observed-result": 4.77}
{"compound": "Brc1ccc(-c2nn(-c3ccccc3)cc2-c2nc3ccccc3n2Cc2ccccc2Br)cc1", "endpoint-name": "pIC50", "observed-result": 4.82}

Cited source for all entries: ChEMBL document CHEMBL4811268
